Assay: AUC (0 to 24 hrs) in BALB/c mouse at 20 mg/kg, po
Format: ADME, organism-based
Set-up: time < 24 hr, dose 20 mg/kg, route oral
Conditions: plasma
Each item that follows carries a reported AUC(0-t) at 24 h.
The response must be a number in ng·h/mL with no trailing unit.

These solved cases illustrate the format of a correct answer.
- COc1ncccc1Nc1cc2nc3ccccc3n(-c3ccc(Cl)cc3)c-2c/c1=N\C1CCC(OC)CC1 (configuration not stated): 43900
- COc1ncccc1Nc1cc2nc3ccccc3n(-c3ccc(F)cc3)c-2c/c1=N\C(C)C: 52400
- COc1ncccc1Nc1cc2nc3ccccc3n(-c3ccc(F)cc3)c-2c/c1=N\C1CCC(OC)CC1 (configuration not stated): 45400
- COC1CCC(/N=c2\cc3n(-c4ccc(Cl)cc4)c4ccccc4nc-3cc2Nc2ccc(C)nc2)CC1 (configuration not stated): 22100

Return the recorded AUC(0-t) at 24 h value; entry: COc1ncccc1Nc1cc2nc3ccccc3n(-c3ccc(OC(F)(F)F)cc3)c-2c/c1=N\C1CCC(OC)CC1 (configuration not stated)
24100

Return the recorded AUC(0-t) at 24 h value; entry: CC(C)/N=c1\cc2n(-c3ccc(Cl)cc3)c3ccccc3nc-2cc1Nc1ccc(Cl)cc1
6960

Return the recorded AUC(0-t) at 24 h value; entry: COc1ncccc1Nc1cc2nc3ccccc3n(-c3ccc(Cl)cc3)c-2c/c1=N\C1CCOCC1
33100

Where do these numbers come from? They come from ChEMBL document CHEMBL2176968.
